assayed_system: T1, c-Met (HGF receptor) expressed on cells (human, UniProt P08581 25-1390)
T1 construct: whole, on cells; Endogenous c-Met on tumour cell lines and on human umbilical vein endothelial cells
T1 sequence (P08581 25-1390): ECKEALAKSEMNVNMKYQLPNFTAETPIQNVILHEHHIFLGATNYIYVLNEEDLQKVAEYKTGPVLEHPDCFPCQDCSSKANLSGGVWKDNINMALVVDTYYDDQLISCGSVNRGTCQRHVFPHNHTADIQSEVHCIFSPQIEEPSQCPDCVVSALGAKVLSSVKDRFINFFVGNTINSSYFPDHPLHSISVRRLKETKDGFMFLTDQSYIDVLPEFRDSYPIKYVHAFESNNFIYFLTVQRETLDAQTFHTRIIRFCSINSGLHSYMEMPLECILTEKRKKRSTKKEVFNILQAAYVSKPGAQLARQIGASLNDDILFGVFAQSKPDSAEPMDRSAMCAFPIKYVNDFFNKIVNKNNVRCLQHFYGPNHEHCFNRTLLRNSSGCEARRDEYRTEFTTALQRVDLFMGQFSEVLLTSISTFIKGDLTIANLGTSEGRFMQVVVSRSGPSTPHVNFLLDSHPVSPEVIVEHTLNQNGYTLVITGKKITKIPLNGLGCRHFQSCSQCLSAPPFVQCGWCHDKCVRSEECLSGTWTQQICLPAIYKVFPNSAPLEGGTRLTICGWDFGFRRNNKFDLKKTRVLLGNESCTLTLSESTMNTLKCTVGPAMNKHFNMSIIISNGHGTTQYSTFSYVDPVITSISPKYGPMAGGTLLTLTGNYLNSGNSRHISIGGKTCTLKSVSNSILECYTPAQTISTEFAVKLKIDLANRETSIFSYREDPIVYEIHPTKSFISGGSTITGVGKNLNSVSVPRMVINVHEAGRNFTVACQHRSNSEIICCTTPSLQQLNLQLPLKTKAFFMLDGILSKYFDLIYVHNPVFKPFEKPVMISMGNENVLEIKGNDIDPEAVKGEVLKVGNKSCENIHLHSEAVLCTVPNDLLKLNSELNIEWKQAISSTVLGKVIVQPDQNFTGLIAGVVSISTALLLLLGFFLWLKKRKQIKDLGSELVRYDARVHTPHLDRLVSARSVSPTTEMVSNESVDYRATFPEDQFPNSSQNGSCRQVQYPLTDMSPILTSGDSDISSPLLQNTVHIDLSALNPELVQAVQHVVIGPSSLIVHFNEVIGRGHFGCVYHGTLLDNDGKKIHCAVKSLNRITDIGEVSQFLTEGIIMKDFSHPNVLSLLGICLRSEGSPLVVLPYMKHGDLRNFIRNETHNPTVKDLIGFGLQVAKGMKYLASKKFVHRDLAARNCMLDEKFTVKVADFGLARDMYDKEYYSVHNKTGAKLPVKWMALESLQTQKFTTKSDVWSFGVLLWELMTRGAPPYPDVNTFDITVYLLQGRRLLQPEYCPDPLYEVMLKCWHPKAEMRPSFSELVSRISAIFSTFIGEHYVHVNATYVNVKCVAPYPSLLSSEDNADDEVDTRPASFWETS
protocol: flow cytometry, antibody titration on DU-145 prostate cancer cells, PE anti-human IgG
Method: This example illustrates in vitro data for anti-c-Met antibody cellular binding EC₅₀ measurements. […] Cells were resuspended in FACS Buffer and the median fluorescence intensity in the FL2-A channel was determined using the Intellicyt® HTFC flow cytometer. Data was collected and analyzed on the Intellicyt® HTFC flow cytometer using the ForeCyt® software. ND=Not Determined.
assay_endpoint: EC50 (nM)
Please respond with the number in nM and leave the unit unwritten.

Q: // EC50 lookup, key: El-A13 (E1 derived anti-c-Met antibody) (antibody, V domains shown, Label 'El-A13' matched to 'GCE-A13' by suffix only; Detected with anti-human IgG; also called E1-A13; GCE-A13) VH: QVQLVQSGAEVKKPGASVKVSCKASGYTFSGDYLHWVRQAPGQGLEWMGWINPNSGGTNYAQKFQGRVTMTRDTSISTAYMELSRLRSDDTAVYYCAREPARDYYYYDGLDVWGQGTTVTVSS VL: QSVVTQPPSVSGAPGQRVTISCLGSASNIGAGHDVHWYQQLPGTAPKLLIYGNSNRPSGVPDRFSGSKSGTSASLAITGLQAEDEADYYCQSYSSSLSAYVFGTGTKVTVL
Ans: 0.362

Data provenance is patent US20190359719A1.
